Test system: RXF 631
PROCEDURE SUMMARY: NCI tumour cell line growth inhibition, 48 h
Calls of active or inactive are those of the source. Cut-off read from the data, not from the text of the source: active = GI50 up to about 1.1 µM and inactive = higher.
# output must be one of yes (1) for active, no (0) for inactive

Use these answered entries as a reference point.
| COMPOUND | TEST TARGET | CLASS NAME |
| --- | --- | --- |
| COc1ccccc1NC(=O)C1=C(C)NC(C)=C(C(=O)Nc2ccccc2OC)C1c1ccco1 | RXF 631 | no (0) |
| N#Cc1sc2nc3c(c(-c4ccccc4)c2c1N)CCCC3 | RXF 631 | no (0) |
| O=C1CN(c2ccccc2)C(=O)C1C(=O)Nc1ccc(Cl)c(Cl)c1 (configuration not stated) | RXF 631 | no (0) |

(Q) What did the test return for CCOC1=C2C(C)(CCC3[C@@]4(C)C=CC(=O)C(C)(C)C4CC(O)[C@@]23C)C(c2ccoc2)C1=O (some centres not stated) ?
(A) no (0)

(Q) What did the test return for CCN(CC)CCCCC1CCN(CC(=O)N2c3ccccc3NC(=O)CC2C)CC1 (configuration not stated) ?
(A) no (0)

(Q) What did the test return for O=C1NC2(CCCCC2)C2CCCCCC12 (configuration not stated) ?
(A) no (0)

(Q) What did the test return for CC[C@@]1(O)C(=O)OCc2c1cc1n(c2=O)Cc2cc3c(OC)cccc3nc2-1 ?
(A) yes (1)
